system: Methicillin-Resistant Staphylococcus aureus (MRSA), CMRSA-1B; experiment: MIC by sequential macrodilution (tube) broth method against MRSA; assay type: cell-based; set-up: key: (+): Positive visual bacterial growth; (−): Negative visual bacterial growth; conditions: Conc. 25.00 μg/ml, 37° C. overnight
readout_label: visual bacterial growth

> print(dat)
                                   compound            readout.label  measured.result
1  Cc1[nH]c2ccccc2c1-c1nc(-c2ccccc2)c(-c2ccccc2)[nH]1  visual bacterial growth                −
2  O=C(O)c1ccc(-c2nc(-c3ccc(Sc4ccccc4)cc3)c(-c3ccccc3)[nH]2)cc1  visual bacterial growth                −
3  O=C(O)c1ccc(-c2nc(-c3ccc(Br)cc3)c(-c3ccccc3Br)[nH]2)cc1 [Compound 4]  visual bacterial growth                +
4  O=C(O)c1ccc(-c2nc(-c3ccc(Br)cc3)c(-c3ccccc3Br)[nH]2)cc1 [Compound 3]  visual bacterial growth                −
